Would you kindly list Measured concentration at day 30 for each of these compounds?
Test: Long term stability of model analytes in dried oral fluid stored 30 days on alginate or chitosan foam
Format: physicochemical, human
Settings: oral fluid on chitosan foam; theoretical 500 ng/ml; stored at room temperature; n = 3
Counter-ions that a name gives are not always drawn.
Answer in ng/mL, number only, no unit symbol.

The compound listed as CNC(C)Cc1ccc(OC)cc1 (centres unmarked) [PMMA, para-methoxymethamphetamine] has a reported Measured concentration at day 30 of 647

The compound listed as COc1ccc(CC(C)N)cc1 (centres unmarked) [PMA, para-methoxyamphetamine] has a reported Measured concentration at day 30 of 719

The compound listed as CN[C@@H](C)Cc1ccccc1 [Methamphetamine] has a reported Measured concentration at day 30 of 601

The compound listed as CCC(=O)C(CC(C)N(C)C)(c1ccccc1)c1ccccc1 (centres unmarked) [Methadone, Methadone hydrochloride] has a reported Measured concentration at day 30 of 582

The compound listed as CO[C@@]12CC[C@@]3(C[C@@H]1[C@](C)(O)C(C)(C)C)[C@H]1Cc4ccc(O)c5c4[C@@]3(CCN1CC1CC1)[C@H]2O5.Cl [Buprenorphine, buprenorphine hydrochloride] has a reported Measured concentration at day 30 of 595

###

Assay: Long term stability of model analytes in dried oral fluid stored 30 days on alginate or chitosan foam
Assay type: physicochemical, human
Settings: oral fluid on chitosan foam; theoretical 500 ng/ml; stored at 4 C; n = 3
Text: The results are shown in Tables 3 and 4 for alginate and chitosan foam, respectively. No sample loss is observed after 30 days of storage. The stability of the model analytes by storing oral fluid on alginate and chitosan foam was considered satisfactory.
Counter-ions that a name gives are not always drawn.
Property name: Measured concentration at day 30 (ng/mL)
Answer in ng/mL, number only, no unit symbol.

The compound listed as CO[C@@]12CC[C@@]3(C[C@@H]1[C@](C)(O)C(C)(C)C)[C@H]1Cc4ccc(O)c5c4[C@@]3(CCN1CC1CC1)[C@H]2O5.Cl [Buprenorphine, buprenorphine hydrochloride] has a reported Measured concentration at day 30 of 569

The compound listed as CN[C@@H](C)Cc1ccccc1 has a reported Measured concentration at day 30 of 744

The compound listed as COc1ccc(CC(C)N)cc1 (centres unmarked) has a reported Measured concentration at day 30 of 765

The compound listed as CCC(=O)C(CC(C)N(C)C)(c1ccccc1)c1ccccc1 (centres unmarked) [Methadone, Methadone hydrochloride] has a reported Measured concentration at day 30 of 564

The compound listed as CNC(C)Cc1ccc(OC)cc1 (centres unmarked) has a reported Measured concentration at day 30 of 765

###

Assay: Long term stability of model analytes in dried oral fluid stored 30 days on alginate or chitosan foam
Type: physicochemical, human
Conditions: oral fluid on alginate foam; theoretical 500 ng/ml; stored at room temperature; n = 3
Counter-ions that a name gives are not always drawn.
Property name: Measured concentration at day 30 (ng/mL)
Answer in ng/mL, number only, no unit symbol.

The molecule listed as CO[C@@]12CC[C@@]3(C[C@@H]1[C@](C)(O)C(C)(C)C)[C@H]1Cc4ccc(O)c5c4[C@@]3(CCN1CC1CC1)[C@H]2O5.Cl [Buprenorphine, buprenorphine hydrochloride] has a reported Measured concentration at day 30 of 642

The molecule listed as CNC(C)Cc1ccc(OC)cc1 (centres unmarked) has a reported Measured concentration at day 30 of 628

The molecule listed as CCC(=O)C(CC(C)N(C)C)(c1ccccc1)c1ccccc1 (centres unmarked) [Methadone, Methadone hydrochloride] has a reported Measured concentration at day 30 of 582

The molecule listed as COc1ccc(CC(C)N)cc1 (centres unmarked) has a reported Measured concentration at day 30 of 628

The molecule listed as CN[C@@H](C)Cc1ccccc1 has a reported Measured concentration at day 30 of 466

These measurements were taken from patent US20150132746A1.
